# system-tested: HDAC8M274A (Homo sapiens, UniProt Q9BY41, M274A)
# Sequence (Q9BY41 whole entry M274A): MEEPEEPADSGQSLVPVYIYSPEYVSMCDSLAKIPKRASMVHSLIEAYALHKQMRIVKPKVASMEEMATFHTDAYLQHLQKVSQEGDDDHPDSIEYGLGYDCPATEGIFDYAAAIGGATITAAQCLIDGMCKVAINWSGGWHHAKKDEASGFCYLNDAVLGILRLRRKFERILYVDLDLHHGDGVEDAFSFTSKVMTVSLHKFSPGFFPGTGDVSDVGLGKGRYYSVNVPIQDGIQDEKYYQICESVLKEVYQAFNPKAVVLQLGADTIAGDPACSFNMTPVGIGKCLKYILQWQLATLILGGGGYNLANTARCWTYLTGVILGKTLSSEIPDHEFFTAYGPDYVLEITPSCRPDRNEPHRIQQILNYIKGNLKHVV
# protocol-details: Enzyme activity assay, IC50 determination with Boc-Lys(TFA)-AMC
experimental-readout: IC50 (µM)
Give just the numeric value; µM need not be written.

Report measured IC50; entry is O=C(NO)c1cccc(-c2cn(CSc3ccccc3)nn2)c1 [NCC-149]
0.3

* * *

# system-tested: HDAC8wt (Homo sapiens)
# Sequence (Q9BY41 whole entry): as the sequence (Q9BY41 whole entry M274A) above, with A274M counted along it
# protocol-details: Enzyme activity assay, IC50 determination with Boc-Lys(TFA)-AMC
experimental-readout: pIC50
Note: pIC50 values are expressed as the negative base-10 logarithm of concentration in M.

Report measured pIC50; entry is O=C(NO)c1cccc(-c2cn(CSc3ccccc3)nn2)c1 [NCC-149]
7.40

Entry source: paper PMC9569839
